target: T1, PILRA Fc (soluble human PILRA) (human, UniProt Q9UKJ1 20-197, limits assumed); test: flow cytometry; blocking of PILRA Fc binding to human CD3+ T cells (Donor 1019)
T1 construct: also called soluble PILRA; not shown: Fc part, detected with anti-human IgG
T1 sequence (Q9UKJ1 20-197 limits assumed): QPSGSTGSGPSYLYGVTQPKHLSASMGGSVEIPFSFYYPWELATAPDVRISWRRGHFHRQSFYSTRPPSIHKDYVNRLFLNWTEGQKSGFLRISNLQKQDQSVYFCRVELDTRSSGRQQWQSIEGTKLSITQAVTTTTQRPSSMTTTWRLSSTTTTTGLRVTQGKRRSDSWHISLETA
measured attribute: IC50 (µg/mL)

binder="E12 (antibody, V domains shown, B-cell cloning campaign (mice)) VH: QVQLQQSGAELAKPGASVKLSCKASGYTFTSYWIHWVKQRPGQGLEWIGYINPSSGDTEYNQKFKDKATLTADKSSNTAYMQLSSLTYEDSAVYYCARSAPDDGYYDYAMDYWGQGTSVTVSS VL: DIVMTQSRKFMSTSVGDRVSVTCKASQNVGSNVAWYQQKPGQSPKGLTYSASYRYSGVPDRFTGSGSGTDFTLTISNVQSEDLAEYFCQQYNSYPYTFGGGTKLEIK" measured_attribute=IC50 assay_value=2.2
binder="D5 (antibody, V domains shown, second hybridoma campaign) VH: EVKLDETGGGLVQPGRPMKLSCVASGFTFSDYWMNWVRQSPEKGLEWVAQIRNKLYNYETYYSDSVKGRFTISRDDSKSSVYLQMNNLRAEDMGIYYCTVGLAMDYWGQGTSVTVSS VL: DIQMTQSSSSFSVSLGDRVTITCKASEDIYNRLAWYQQKPGNAPRLLISGATSLETGVPSRFSGSGSGKEYTLNITSLQTEDVATYYCQQYWSTPTFGGGTKLEIK" measured_attribute=IC50 assay_value=4.56
